System: CCRIS mutagenicity, Ames/micronucleus/aberration tests
Test: CCRIS mutagenicity studies
Conditions: Test System: AMES SALMONELLA TYPHIMURIUM; Strain/Indicator: TA100; Metabolic Activation: RAT, LIVER, S-9, AROCLOR 1254; Method: STANDARD PLATE
Excerpt: The CCRIS database contains chemical records with carcinogenicity, mutagenicity, tumor promotion, and tumor inhibition test results. It was developed by the National Cancer Institute (NCI). Data are derived from studies cited in primary journals, current awareness tools, NCI reports, and other sources. Test results have been reviewed by experts in carcinogenesis and mutagenesis. CCRIS provides historical information from the years 1985 - 2011. It is no longer updated. […]
Active and inactive are the calls of the source. The rule behind the calls is not given here.
Please answer using one outcome listed in YES (active), NO (inactive)

I'd appreciate the recorded outcome for Cn1c([N+](=O)[O-])cnc1C(O)c1cc(C(C)(C)C)cc(C(C)(C)C)c1O (stereo not drawn) from this test.
NO

I'd appreciate the recorded outcome for CS(=O)(=O)c1ccc(Cl)cc1 from this test.
NO

I'd appreciate the recorded outcome for Cc1cc2c(c3ccc4ccccc4c13)CCC2=O from this test.
YES

I'd appreciate the recorded outcome for CCO[Si](OCC)(OCC)OCC from this test.
NO

I'd appreciate the recorded outcome for CC/C(C)=N\O from this test.
NO

I'd appreciate the recorded outcome for Cc1ccc(C)c2c1ccc1ccccc12 from this test.
YES

I'd appreciate the recorded outcome for O=C(O)CNCP(=O)(O)O from this test.
NO

I'd appreciate the recorded outcome for CN(CCO)C(=O)Nc1ccc(Cl)c(Cl)c1 from this test.
NO

I'd appreciate the recorded outcome for CN(C)C(=S)SSC(=S)N(C)C from this test.
YES

I'd appreciate the recorded outcome for CC(=O)/C=C/c1ccccc1 from this test.
YES

I'd appreciate the recorded outcome for CC(=O)Oc1ccccc1C(=O)O from this test.
NO

I'd appreciate the recorded outcome for Cc1nc2c(c3[nH]c4ccccc4c13)C(=O)C(N1CC1)=CC2=O from this test.
YES

I'd appreciate the recorded outcome for O=[N+]([O-])c1ccc2c(c1)Cc1cc([N+](=O)[O-])ccc1-2 from this test.
YES

I'd appreciate the recorded outcome for C1CSCSC1 from this test.
YES

I'd appreciate the recorded outcome for O=c1c(Cl)c(Cl)cnn1S(=O)(=O)c1ccc([N+](=O)[O-])cc1 from this test.
YES

I'd appreciate the recorded outcome for NC(=O)C1(C(N)=O)OC1C(=O)c1ccccc1 (stereo not drawn) from this test.
NO

I'd appreciate the recorded outcome for Cc1ccc(NS(=O)(=O)c2cccc3cccnc23)cc1 from this test.
NO

I'd appreciate the recorded outcome for CC1(S(=O)(=O)O)CC(=O)c2ccccc2C1=O (stereo not drawn) (tested in a mixture with another compound) from this test.
NO

I'd appreciate the recorded outcome for N#CCCNCCC#N from this test.
NO

I'd appreciate the recorded outcome for N#CCCN from this test.
NO

I'd appreciate the recorded outcome for COc1c(N)cc(C)c(N)c1C from this test.
NO

I'd appreciate the recorded outcome for O=C(O)C[C@H](NC(=O)COc1ccc(Cl)cc1Cl)C(=O)O from this test.
NO

I'd appreciate the recorded outcome for O=C(c1ccc(-c2ccccc2)cc1)C1OC1c1ccccc1 (stereo not drawn) from this test.
NO

I'd appreciate the recorded outcome for O=C(/C=C/c1ccc(O)c(O)c1)O[C@@H]1C[C@](O)(C(=O)O)C[C@@H](O)[C@H]1O from this test.
NO

I'd appreciate the recorded outcome for Nc1ccc2c(c1)C(=O)c1ccc(N)cc1C2=O from this test.
NO

I'd appreciate the recorded outcome for Oc1ccc(O)c2c(O)c3ccccc3c(O)c12 from this test.
NO

I'd appreciate the recorded outcome for C=C(C)C(=O)OCCO from this test.
NO

I'd appreciate the recorded outcome for CN(C)CCO from this test.
NO

* * *

system: CCRIS mutagenicity, Ames/micronucleus/aberration tests; assay: CCRIS mutagenicity studies; conditions: Test System: AMES SALMONELLA TYPHIMURIUM; Strain/Indicator: TA100; Metabolic Activation: NONE; Method: PREINCUBATION
Activity calls are given as the source filed them. How the calls were made is not given here.
Please answer using one outcome listed in active, inactive

I'd appreciate the recorded outcome for O=c1c(O)c(-c2ccccc2)oc2cc(O)cc(O)c12 from this test.
inactive

I'd appreciate the recorded outcome for CC(=O)O[C@H]1[C@H](OC23C=C(C)C4(CC4)C(C)(O)C2C(=O)C(C)(C)C3)O[C@H](CO)[C@@H](OC(=O)/C=C/c2ccc(O)cc2)[C@@H]1O (some centres not stated) from this test.
active

I'd appreciate the recorded outcome for CCNCC from this test.
inactive

I'd appreciate the recorded outcome for Cc1ccc([N+](=O)[O-])cc1C from this test.
inactive

I'd appreciate the recorded outcome for CCCCCCCCCCCC(=O)N(CCO)CCO from this test.
inactive

I'd appreciate the recorded outcome for Cc1ccc(C#N)cc1 from this test.
inactive

I'd appreciate the recorded outcome for OC[C@H]1OC(n2cnc3c2ncn2ccnc32)C[C@@H]1O (some centres not stated) from this test.
inactive

I'd appreciate the recorded outcome for O=C(Nc1ccccc1)c1cc2ccccc2c(N=Nc2cc(Cl)ccc2Cl)c1O from this test.
inactive

I'd appreciate the recorded outcome for CCn1cc(C(=O)O)c(=O)c2cnc(N3CCNCC3)nc21 from this test.
inactive

I'd appreciate the recorded outcome for [Cl][Mn][Cl] from this test.
inactive

I'd appreciate the recorded outcome for NCCO from this test.
inactive

I'd appreciate the recorded outcome for COC(=O)c1oc([N+](=O)[O-])c(-c2ccccc2)c1-c1ccccc1 from this test.
active

* * *

System: CCRIS mutagenicity, Ames/micronucleus/aberration tests
Assay: CCRIS mutagenicity studies
Details: Test System: AMES SALMONELLA TYPHIMURIUM; Strain/Indicator: TA100; Metabolic Activation: NONE; Method: GAS EXPOSURE
From the text: The CCRIS database contains chemical records with carcinogenicity, mutagenicity, tumor promotion, and tumor inhibition test results. It was developed by the National Cancer Institute (NCI). Data are derived from studies cited in primary journals, current awareness tools, NCI reports, and other sources. Test results have been reviewed by experts in carcinogenesis and mutagenesis. CCRIS provides historical information from the years 1985 - 2011. It is no longer updated. […]
Calls of active or inactive are those of the source. How the calls were made is not given here.
Please answer using one outcome listed in YES (active), NO (inactive)

I'd appreciate the recorded outcome for C1COCCO1 from this test.
NO

I'd appreciate the recorded outcome for FC(F)(Cl)Cl from this test.
NO

I'd appreciate the recorded outcome for CBr from this test.
YES

I'd appreciate the recorded outcome for CC=O from this test.
NO

* * *

test system: CCRIS mutagenicity, Ames/micronucleus/aberration tests; assay: CCRIS mutagenicity studies; conditions: Test System: AMES SALMONELLA TYPHIMURIUM; Strain/Indicator: TA7005; Metabolic Activation: RAT LIVER S-9, AROCLOR 1254; Method: FLUCTUATION (MICROTITER)
Calls of active or inactive are those of the source. No rule for the calls is given here.
Please answer using one outcome listed in active, inactive

I'd appreciate the recorded outcome for CS(C)=O from this test.
inactive

I'd appreciate the recorded outcome for CC(C)(OO)c1ccccc1 from this test.
active

I'd appreciate the recorded outcome for CC(C)CON=O from this test.
inactive

I'd appreciate the recorded outcome for CCC1CO1 (centres undefined) from this test.
inactive

* * *

test system: CCRIS mutagenicity, Ames/micronucleus/aberration tests; experiment: CCRIS mutagenicity studies; conditions: Test System: AMES SALMONELLA TYPHIMURIUM; Strain/Indicator: TA1537; Metabolic Activation: NONE; Method: STANDARD PLATE
Calls of active or inactive are those of the source. The rule behind the calls is not given here.
Please answer using one outcome listed in active, inactive

I'd appreciate the recorded outcome for [N-]=[N+]=[N-] from this test.
inactive

I'd appreciate the recorded outcome for CCC(=O)C1c2cccc(O)c2C(=O)c2c(O)cccc21 from this test.
active

I'd appreciate the recorded outcome for O=[N+]([O-])c1cccc2[nH]c3ccccc3c12 from this test.
inactive

I'd appreciate the recorded outcome for CC1(S(=O)(=O)O)CC(=O)c2ccccc2C1=O (stereo unspecified) (tested in a mixture with another compound) from this test.
inactive

I'd appreciate the recorded outcome for CCOP(=S)(OCC)Oc1cnc2ccccc2n1 from this test.
inactive

I'd appreciate the recorded outcome for COC(=O)Nc1nc2ccc(O)cc2[nH]1 from this test.
inactive

I'd appreciate the recorded outcome for CS(C)=O from this test.
inactive

I'd appreciate the recorded outcome for CN1CCN=C(c2ccccc2)c2cc(Cl)ccc21 from this test.
inactive

I'd appreciate the recorded outcome for Cn1c(-c2ccccc2)c(N=Nc2scc[n+]2C)c2ccccc21 from this test.
active

I'd appreciate the recorded outcome for CSCC[C@H](NC(=O)[C@@H](N)Cc1c[nH]c2ccccc12)C(=O)N[C@@H](CC(=O)O)C(=O)N[C@@H](Cc1ccccc1)C(N)=O from this test.
inactive

I'd appreciate the recorded outcome for O=[N+]([O-])c1cc(Cl)cc(Sc2cc(Cl)cc([N+](=O)[O-])c2O)c1O from this test.
inactive

* * *

system: CCRIS mutagenicity, Ames/micronucleus/aberration tests; assay: CCRIS mutagenicity studies; conditions: Test System: AMES SALMONELLA TYPHIMURIUM; Strain/Indicator: TA100; Metabolic Activation: S-9; Method: STANDARD PLATE
Calls of active or inactive are those of the source. No rule for the calls is given here.
Please answer using one outcome listed in 1.0 (active), 0.0 (inactive)

I'd appreciate the recorded outcome for Nc1cccc2c(Cl)nsc12 from this test.
1.0

I'd appreciate the recorded outcome for CC/C(=C(/CC)c1ccc(O)cc1)c1ccc(O)cc1 from this test.
0.0

I'd appreciate the recorded outcome for Nc1ccn([C@@H]2O[C@H](CO)[C@@H](O)C2O)c(=O)n1 (some centres not stated) from this test.
0.0

I'd appreciate the recorded outcome for CC(C)C(=O)Nc1snc2cc(Cl)ccc12 from this test.
0.0

I'd appreciate the recorded outcome for Oc1ccc(Cl)cc1 from this test.
0.0

I'd appreciate the recorded outcome for CC(C)C(=O)Nc1snc2ccccc12 from this test.
0.0

I'd appreciate the recorded outcome for Cc1ccccc1N from this test.
0.0

I'd appreciate the recorded outcome for CCSCCSP(=S)(OC)OC from this test.
0.0

I'd appreciate the recorded outcome for N#Cc1ccc(/C=C/c2ccc([N+](=O)[O-])cc2)cc1 from this test.
1.0

I'd appreciate the recorded outcome for CCOP(=S)(OCC)SCSCC from this test.
0.0

I'd appreciate the recorded outcome for O=C(N=c1sn(C(=O)c2ccc([N+](=O)[O-])cc2)c2ccc([N+](=O)[O-])cc12)c1ccc([N+](=O)[O-])cc1 from this test.
1.0

I'd appreciate the recorded outcome for CC(C)Oc1ccc2c(=O)c(-c3ccccc3)coc2c1 from this test.
0.0

I'd appreciate the recorded outcome for C1CSCCS1 from this test.
0.0

I'd appreciate the recorded outcome for CC(C)CC(=O)Nc1snc2ccccc12 from this test.
0.0

I'd appreciate the recorded outcome for CC(=O)N=c1sn(C(C)=O)c2ccc([N+](=O)[O-])cc12 from this test.
1.0

I'd appreciate the recorded outcome for CCCCOC(=O)CCCCCCCCC(=O)OCCCC from this test.
0.0

I'd appreciate the recorded outcome for C[n+]1ccn(COCCC(C)(C)[N+](=O)[O-])c1/C=N/O from this test.
0.0

I'd appreciate the recorded outcome for CC(C)(C)c1cc(-c2ccccc2)ccc1N=O from this test.
1.0

I'd appreciate the recorded outcome for CC(=O)Nc1ccc(Oc2c(Cl)cc(Cl)cc2Cl)cc1 from this test.
1.0

I'd appreciate the recorded outcome for COC(=O)c1cc(OC)c2c(c1-c1c(C(=O)OC)cc(OC)c3c1OCO3)OCO2 from this test.
0.0

I'd appreciate the recorded outcome for Nc1nc2n[nH]nc2c(=O)[nH]1 from this test.
0.0

I'd appreciate the recorded outcome for Cc1ccc(/C=C/c2ccc(N)cc2)cc1 from this test.
1.0

Origin of the recorded values: PubChem BioAssay AID1259407
